biological target: Cytochrome P450 3A4 (Homo sapiens); test: Cytochrome panel assay with activity outcomes; details: recombinant CYP, pro-luciferin dealkylation, luminescence, p450-cyp3a4; series mostly up to 57.1 µM; as to activity, negative = inhibition: % is scaled to controls: 0 for no effect and ±100 for the full control effect
In all, about 16,000 compounds went through this assay and about 5,100 (32%) were called active. About 25% were inconclusive and are not listed. The list shows a part of the results.
Listed here: items and their measured activity, negative = inhibition.

Worked cases, activity, negative = inhibition given:
{"columns": ["MOLECULE", "activity, negative = inhibition"],
 "data": [
  ["Cc1n[nH]c2ccccc2c1=O", "-6.8% [at 11.4 µM] (inactive)"],
  ["CN(C)Cc1ccc(O)c(CN(C)C)n1", "-18.2% [at 11.4 µM] (inactive)"],
  ["CCc1nc2c(c(SC)nn2-c2ccccc2)c(N)c1C(=O)OC", "-21.9% [at 11.4 µM] (inactive)"]
]}

Okay, now this molecule:
Returns the measured activity, negative = inhibition for the input molecule. Input: COc1ccc(/C=C(/NC(C)=O)C(=O)O)cc1
4.62% [at 2.29 µM] (inactive)

====

Molecular target: Cytochrome P450 3A4 (Homo sapiens)
Test: Cytochrome panel assay with activity outcomes
Conditions: recombinant CYP, pro-luciferin dealkylation, luminescence, p450-cyp3a4; series mostly up to 57.1 µM
Procedure: The P450 gene superfamily is involved in the metabolism and clearance of xenobiotics. This assay used various human CYP P450 isozymes to measure the dealkylation of various pro-luciferin substrates to luciferin. The luciferin is then measured by luminescence after the addition of a luciferase detection reagent. […] Inhibitors and some substrates limit the production of luciferin, and decrease measured luminescence. […] 8, Detection, 1 sec, ViewLux luminescent read […]
Hit rate of the full screen: of about 16,000 compounds, about 5,100 (32%) were called active. Another 25% or so got no clear call; they are omitted. Calls come from the whole dose curve; as a rule, active = well fitted curve in the direction sought with a large enough effect; inconclusive = small, poorly fitted or top-dose-only effect, or effect the other way; inactive = no such curve, though single readings can be large or run the other way. The list shows a part of the results.
Form entry, call: pick from active, inactive

Some solved entries appear below for comparison.
{"columns": ["MOLECULE", "LABEL"],
 "data": [
  ["Cc1ccccc1C(=O)NC(C)c1ccc2c(c1)CCCC2 (configuration not stated)", "inactive"],
  ["CCN(CC)C(=O)Cn1cnc([N+](=O)[O-])n1", "inactive"],
  ["COC(=O)[C@@]1(Cc2ccc(OC)cc2)[C@@H]2[C@@H](CC(=O)[C@H]2CC(=O)C(=O)N2CCCC2)CN1C(=O)c1ccccc1", "active"],
  ["CCc1nnc(NS(=O)(=O)c2ccc(N=Cc3c(C)[nH]n(-c4ccc(C)cc4)c3=O)cc2)s1", "active"],
  ["CN1CCc2cc(Cl)c(O)cc2[C@@H](c2ccccc2)C1", "inactive"],
  ["Cc1ccc(-c2nc3ncccn3c2NC(=O)C2CC2)cc1", "inactive"],
  ["CCCCSC(=S)N(C)C1CCS(=O)(=O)C1 (configuration not stated)", "inactive"],
  ["CCCCCC(=O)N1CC2(CC(c3cccc(NC(=O)c4ccccc4)c3)=NO2)C[C@@H]1C(N)=O (some centres not stated)", "active"],
  ["O=C(O)Cc1sc(-c2ccc(Cl)cc2)nc1-c1ccccc1", "inactive"],
  ["C=C(C)C(=O)N1CC2(CC(c3cccc(NC(=O)c4ccccc4)c3)=NO2)C[C@@H]1C(N)=O (some centres not stated)", "inactive"]
]}

Turning now to a further molecule:
Hello, I am checking results. What call was entered for NC(=O)[C@H]1CC2(CC(c3cccc(NC(=O)c4ccccc4)c3)=NO2)CN1C(=O)[C@H]1CCC(=O)N1 (some centres not stated) ?
inactive
